Assay details: Microsomal stability in dog liver microsomes assessed as intrinsic clearance at 50 uM preincubated for 5 mins with NADPH followed by compound addition and measured upto 60 mins by LC-MS/MS analysis
Format: ADME, Canis lupus familiaris, Microsome
Measurement parameters: read-out: CLH

Compound string: Cl.Cn1nccc1-c1ccc(C(=O)N[C@@H]2CNCC[C@H]2c2ccc(F)c(F)c2)c(F)c1
Uom: µL/min/mg
microsomal CLint at 50 µM: 4.1

---

System: MDA-MB-231
Assay details: Antiproliferative activity against human MDA-MB-231 cells assessed as inhibition of cell growth incubated for 72 hrs by SRB method
Format: functional, cell-based
Measurement parameters: MDA-MB-231, 72 h
Listed here: items and their measured IC50.

Compound string: Cl.Cn1nccc1-c1ccc(C(=O)N[C@@H]2CNCC[C@H]2c2ccc(F)c(F)c2)c(F)c1
Target system: MDA-MB-231
IC50: 16.4 µM

Compound string: NC1(C(=O)N[C@@H](CCO)c2ccc(Cl)cc2)CCN(c2nc[nH]c3nccc2-3)CC1
Target system: MDA-MB-231
IC50: 60.5 µM

---

Assay details: AUC(0 to infinity) in Sprague-Dawley rat at 2 mg/kg, iv measured upto 24 hrs by LC-MS/MS analysis
Assay type: ADME, organism-based
Parameters: route intravenous, dose 2 mg/kg, time <=24
Measurement parameters: in vivo

Compound string: Cl.Cn1nccc1-c1ccc(C(=O)N[C@@H]2CNCC[C@H]2c2ccc(F)c(F)c2)c(F)c1
AUC(0-inf): 0.533 µg·h/mL

---

Assay details: AUC(0 to t) in Sprague-Dawley rat at 2 mg/kg, iv measured upto 24 hrs by LC-MS/MS analysis
Format: ADME, organism-based
Design: route intravenous, dose 2 mg/kg, time <=24
Measurement parameters: in vivo

Compound string: Cl.Cn1nccc1-c1ccc(C(=O)N[C@@H]2CNCC[C@H]2c2ccc(F)c(F)c2)c(F)c1
Uom: ng·h/mL
AUC(0-t) at 24 h: 459

---

Assay details: AUC(0 to t) in Beagle dog at 20 mg/kg, ig measured upto 96 hrs by LC-MS/MS analysis
Type: ADME, organism-based, Canis lupus familiaris
Set-up: route […], dose 20 mg/kg, time <=96
Measurement parameters: in vivo, po
Measurement name: AUC(0-t) at 96 h (ng·h/mL)

Compound string: Cl.Cn1nccc1-c1ccc(C(=O)N[C@@H]2CNCC[C@H]2c2ccc(F)c(F)c2)c(F)c1
Measurement name: AUC(0-t) at 96 h
Quantitative result: 33300

---

Target system: Ribosomal protein S6 kinase alpha-1 (Homo sapiens)
Sequence (Q15418 whole entry): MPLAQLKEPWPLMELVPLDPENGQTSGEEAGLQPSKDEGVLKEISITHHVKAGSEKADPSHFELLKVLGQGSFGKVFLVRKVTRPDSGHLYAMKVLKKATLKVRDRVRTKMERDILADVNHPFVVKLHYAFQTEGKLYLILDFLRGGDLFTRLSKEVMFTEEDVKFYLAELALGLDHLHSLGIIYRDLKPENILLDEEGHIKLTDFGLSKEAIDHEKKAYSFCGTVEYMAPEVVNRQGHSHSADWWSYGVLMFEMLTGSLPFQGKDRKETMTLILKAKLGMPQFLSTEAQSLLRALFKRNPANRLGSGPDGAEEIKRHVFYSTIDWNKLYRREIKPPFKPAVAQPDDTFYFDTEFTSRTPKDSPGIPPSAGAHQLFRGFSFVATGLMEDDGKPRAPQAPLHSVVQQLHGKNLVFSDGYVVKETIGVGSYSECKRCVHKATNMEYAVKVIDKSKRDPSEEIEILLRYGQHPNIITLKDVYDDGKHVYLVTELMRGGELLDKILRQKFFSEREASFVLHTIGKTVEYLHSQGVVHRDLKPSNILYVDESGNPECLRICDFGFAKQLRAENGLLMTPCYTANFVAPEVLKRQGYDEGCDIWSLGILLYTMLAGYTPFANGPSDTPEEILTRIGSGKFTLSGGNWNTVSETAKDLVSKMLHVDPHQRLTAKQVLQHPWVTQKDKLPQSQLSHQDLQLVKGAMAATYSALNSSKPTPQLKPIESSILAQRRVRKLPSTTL
Assay details: Inhibition of RSK1 (unknown origin)
Measurement name: IC50 (nM)

Compound string: Cl.Cn1nccc1-c1ccc(C(=O)N[C@@H]2CNCC[C@H]2c2ccc(F)c(F)c2)c(F)c1
Uom: nM
Quantitative result: 756

---

Target system: Serine/threonine-protein kinase Sgk1 (Homo sapiens, UniProt O00141)
Sequence (O00141 whole entry): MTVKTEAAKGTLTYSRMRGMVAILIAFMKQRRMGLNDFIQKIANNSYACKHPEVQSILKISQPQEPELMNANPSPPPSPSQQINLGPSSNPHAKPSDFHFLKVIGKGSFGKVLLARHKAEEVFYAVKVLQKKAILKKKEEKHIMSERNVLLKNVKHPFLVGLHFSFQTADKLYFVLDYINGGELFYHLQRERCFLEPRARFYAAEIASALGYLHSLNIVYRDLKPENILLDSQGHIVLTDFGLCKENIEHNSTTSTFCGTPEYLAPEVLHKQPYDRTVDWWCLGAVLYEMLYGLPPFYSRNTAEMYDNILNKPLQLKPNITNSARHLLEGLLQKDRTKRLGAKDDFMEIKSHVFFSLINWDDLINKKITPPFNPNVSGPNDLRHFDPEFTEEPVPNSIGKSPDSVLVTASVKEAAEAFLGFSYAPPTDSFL
Assay details: Inhibition of SGK (unknown origin)
Measurement name: IC50 (µM)

Compound string: Cl.Cn1nccc1-c1ccc(C(=O)N[C@@H]2CNCC[C@H]2c2ccc(F)c(F)c2)c(F)c1
Quantitative result: 1.01

---

Target system: hERG (KCNH2) (Homo sapiens, UniProt Q12809)
Sequence (Q12809 whole entry): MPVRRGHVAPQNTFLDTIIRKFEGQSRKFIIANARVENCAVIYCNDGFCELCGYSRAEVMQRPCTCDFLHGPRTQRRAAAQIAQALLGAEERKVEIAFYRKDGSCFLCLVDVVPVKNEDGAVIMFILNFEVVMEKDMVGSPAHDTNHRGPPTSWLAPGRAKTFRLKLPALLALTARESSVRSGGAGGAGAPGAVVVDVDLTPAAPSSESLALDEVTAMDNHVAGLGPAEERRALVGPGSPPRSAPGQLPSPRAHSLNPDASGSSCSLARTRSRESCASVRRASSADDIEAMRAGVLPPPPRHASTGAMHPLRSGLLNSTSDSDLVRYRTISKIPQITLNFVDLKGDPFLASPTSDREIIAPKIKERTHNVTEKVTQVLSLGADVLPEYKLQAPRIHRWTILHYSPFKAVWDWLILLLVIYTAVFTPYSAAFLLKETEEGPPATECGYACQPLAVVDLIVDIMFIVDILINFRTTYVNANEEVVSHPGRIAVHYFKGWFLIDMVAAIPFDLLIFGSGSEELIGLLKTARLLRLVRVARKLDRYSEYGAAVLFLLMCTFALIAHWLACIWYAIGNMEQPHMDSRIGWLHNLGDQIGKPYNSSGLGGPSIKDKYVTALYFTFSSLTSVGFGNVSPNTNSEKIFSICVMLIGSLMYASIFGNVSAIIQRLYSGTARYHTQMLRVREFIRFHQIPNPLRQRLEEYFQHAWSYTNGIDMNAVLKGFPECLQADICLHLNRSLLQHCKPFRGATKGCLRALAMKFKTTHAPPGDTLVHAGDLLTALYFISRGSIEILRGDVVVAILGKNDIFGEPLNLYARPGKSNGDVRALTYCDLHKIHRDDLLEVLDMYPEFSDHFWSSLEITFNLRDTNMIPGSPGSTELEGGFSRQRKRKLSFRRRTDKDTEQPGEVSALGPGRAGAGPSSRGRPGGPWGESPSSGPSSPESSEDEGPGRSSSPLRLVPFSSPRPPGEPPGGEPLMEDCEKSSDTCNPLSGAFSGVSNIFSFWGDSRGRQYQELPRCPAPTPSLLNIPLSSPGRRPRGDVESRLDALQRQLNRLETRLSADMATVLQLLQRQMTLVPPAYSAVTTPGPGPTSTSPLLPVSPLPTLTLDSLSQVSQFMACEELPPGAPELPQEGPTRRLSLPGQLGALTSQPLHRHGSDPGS
Assay details: Inhibition of human ERG expressed in HEK293 cells at 3 uM by whole cell patch clamp method relative to control
Format: cell-based
Measurement parameters: HEK293 cells expressing hERG
Measurement name: inhibition at 3 µM (%)

Compound string: Cn1nccc1-c1cc(F)c(C(=O)N[C@@H]2CNCC[C@H]2c2ccc(F)c(F)c2)cc1F
Target system: hERG (KCNH2) (Homo sapiens, UniProt Q12809)
Uom: %
Quantitative result: 27.2

Compound string: Cl.Cn1nccc1-c1ccc(C(=O)N[C@@H]2CNCC[C@H]2c2ccc(F)c(F)c2)c(F)c1
Target system: hERG (KCNH2) (Homo sapiens, UniProt Q12809)
Uom: %
Quantitative result: 15.9

Compound string: Cn1nccc1-c1ccc(C(=O)N[C@@H]2CNCC[C@H]2c2cc(F)cc(F)c2)c(F)c1
Target system: hERG (KCNH2) (Homo sapiens, UniProt Q12809)
Uom: %
Quantitative result: 6.4

Compound string: Cn1nccc1-c1ccc(C(=O)N[C@@H]2CNCC[C@H]2c2cc(F)cc(F)c2)cc1F
Target system: hERG (KCNH2) (Homo sapiens, UniProt Q12809)
Uom: %
Quantitative result: 26.4

Compound string: Cn1nccc1-c1ccc(C(=O)N[C@@H]2CNCC[C@H]2c2ccc(F)c(F)c2)cc1F
Target system: hERG (KCNH2) (Homo sapiens, UniProt Q12809)
Uom: %
Quantitative result: 10.7

---

Assay details: Microsomal stability in monkey liver microsomes assessed as intrinsic clearance at 50 uM preincubated for 5 mins with NADPH followed by compound addition and measured upto 60 mins by LC-MS/MS analysis
Type: ADME, Macaca mulatta, Microsome
Measurement parameters: rhesus monkey, read-out: CLH
Measurement name: microsomal CLint at 50 µM (µL/min/mg)

Compound string: Cl.Cn1nccc1-c1ccc(C(=O)N[C@@H]2CNCC[C@H]2c2ccc(F)c(F)c2)c(F)c1
Measurement name: microsomal CLint at 50 µM
Uom: µL/min/mg
Quantitative result: 13.6

---

Assay details: Microsomal stability in rat liver microsomes assessed as half life at 50 uM preincubated for 5 mins with NADPH followed by compound addition and measured upto 60 mins by LC-MS/MS analysis
Type: ADME, Microsome

Compound string: Cl.Cn1nccc1-c1ccc(C(=O)N[C@@H]2CNCC[C@H]2c2ccc(F)c(F)c2)c(F)c1
half-life at 50 µM, h: 1.16

---

Test system: HGC-27
Assay details: Antiproliferative activity against human HGC-27 cells assessed as inhibition of cell growth incubated for 72 hrs by SRB assay
Assay type: functional, cell-based
Measurement parameters: HGC-27, 72 h
Measurement name: IC50 (nM)

Compound string: Cn1nccc1-c1cc(F)c(C(=O)N[C@@H]2CNCC[C@H]2c2ccc(F)cc2)cc1F
Uom: nM
Quantitative result: 3360
--
Compound string: Cn1nccc1-c1ccc(C(=O)N[C@@H]2CNCC[C@H]2c2cc(F)cc(F)c2)c(Cl)c1
Uom: nM
Quantitative result: 1240
--
Compound string: Cl.Cn1nccc1-c1ccc(C(=O)N[C@@H]2CNCC[C@H]2c2ccc(F)c(F)c2)c(F)c1
Uom: nM
Quantitative result: 680
--
Compound string: Cn1ncc(Br)c1-c1cc(F)c(C(=O)N[C@@H]2CNCC[C@H]2c2ccc(F)c(F)c2)cc1F
Uom: nM
Quantitative result: 1790

---

System: 786-0
Assay details: Antiproliferative activity against human 786-0 cells assessed as inhibition of cell growth incubated for 72 hrs by SRB assay
Type: functional, cell-based
Measurement parameters: 786-0, 72 h
Listed here: items and their measured log10(IC50).
Measurement name: log10(IC50) (log10 of the value in µM)

Compound string: Cn1nccc1-c1cc(F)c(C(=O)N[C@@H]2CNCC[C@H]2c2ccc(F)c(F)c2)c(F)c1
Quantitative result: 0.90
--
Compound string: Cn1nccc1-c1cc(F)c(C(=O)N[C@@H]2CNCC[C@H]2c2ccc(F)cc2)cc1F
Quantitative result: 0.89
--
Compound string: Cn1nccc1-c1ccc(C(=O)N[C@@H]2CNCC[C@H]2c2ccc(F)c(F)c2)c(Cl)c1
Quantitative result: 0.61
--
Compound string: O=C(N[C@@H]1CNCC[C@H]1c1ccc(F)c(F)c1)c1ccc(-c2ccn[nH]2)cc1F
Quantitative result: 0.85
--
Compound string: Cn1ncc(Cl)c1-c1cc(F)c(C(=O)N[C@@H]2CNCC[C@H]2c2ccc(F)c(F)c2)c(Cl)c1
Quantitative result: 0.50
--
Compound string: Cn1nccc1-c1ccc(C(=O)N[C@@H]2CNCC[C@H]2c2cc(F)cc(F)c2)c(Cl)c1
Quantitative result: 0.58
--
Compound string: Cn1ncc(Br)c1-c1cc(F)c(C(=O)N[C@@H]2CNCC[C@H]2c2ccc(F)c(F)c2)c(Cl)c1
Quantitative result: 0.51
--
Compound string: Cn1nccc1-c1ccc(C(=O)N[C@@H]2CNCC[C@H]2c2ccc(F)c(F)c2)cc1F
Quantitative result: -0.02
--
Compound string: Cn1nccc1-c1cc(F)c(C(=O)N[C@@H]2CNCC[C@H]2c2ccc(F)c(F)c2)c(Cl)c1
Quantitative result: 0.34
--
Compound string: Cl.Cn1nccc1-c1ccc(C(=O)N[C@@H]2CNCC[C@H]2c2ccc(F)c(F)c2)c(F)c1
Quantitative result: 0.40
--
Compound string: Cn1nccc1-c1cc(F)c(C(=O)N[C@@H]2CNCC[C@H]2c2ccc(F)cc2)c(F)c1
Quantitative result: 1.41
--
Compound string: Cn1nccc1-c1cc(F)c(C(=O)N[C@@H]2CNCC[C@H]2c2ccc(F)c(F)c2)cc1F
Quantitative result: 0.70
--
Compound string: Cn1nccc1-c1ccc(C(=O)N[C@@H]2CNCC[C@H]2c2cc(F)cc(F)c2)cc1F
Quantitative result: 0.00
--
Compound string: Cn1ncc(Br)c1-c1cc(F)c(C(=O)N[C@@H]2CNCC[C@H]2c2ccc(F)c(F)c2)cc1F
Quantitative result: 0.28
